TGI for assorted compounds
- System: UACC-62 melanoma
- assay.info: NCI tumour cell line growth inhibition, 48 h
value.type: TGI

[
  {
    "compound": "CC[C@]1(O)CC2CN(CCCc3c([nH]c4ccccc34)[C@@](C(=O)OC)(c3cc4c(cc3OC)N(C)C3C45CCN4CC=C[C@](CC)(C45)C(OC(C)=O)[C@@]3(O)C(=O)OC)C2)C1 (some centres undefined)",
    "value.type": "TGI",
    "test.value": "> 10 µM"
  },
  {
    "compound": "CS(=O)(=O)c1ccc(Oc2cc(F)cc(C#N)c2)c2c1[C@H](O)[C@H](F)[C@H]2F",
    "value.type": "TGI",
    "test.value": "> 100 µM"
  },
  {
    "compound": "O=C1Nc2ccc(Cl)cc2C(=O)N2CCC[C@@H]12",
    "value.type": "TGI",
    "test.value": "> 100 µM"
  },
  {
    "compound": "CCn1c2ccccc2c2nnc(NCCCO)nc21",
    "value.type": "TGI",
    "test.value": "> 100 µM"
  }
]

Origin of the recorded values: PubChem BioAssay (NCI)
